inhibition at 1 µM reference
Molecular target: human CCR5 chemokine receptor (Homo sapiens, UniProt P51681)
Construct: expressed in transfected cells
Sequence (P51681 whole entry): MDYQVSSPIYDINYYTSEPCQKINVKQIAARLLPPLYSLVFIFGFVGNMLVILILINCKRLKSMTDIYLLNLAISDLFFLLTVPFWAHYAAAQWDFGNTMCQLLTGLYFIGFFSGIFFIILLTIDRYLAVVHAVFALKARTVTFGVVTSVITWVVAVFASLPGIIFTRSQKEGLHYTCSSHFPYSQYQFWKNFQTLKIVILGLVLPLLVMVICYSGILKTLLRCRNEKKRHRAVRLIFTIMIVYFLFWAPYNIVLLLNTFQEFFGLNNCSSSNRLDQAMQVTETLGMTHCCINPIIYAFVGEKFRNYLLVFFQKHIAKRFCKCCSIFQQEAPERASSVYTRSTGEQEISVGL
Test: Inhibition of [125I]-RANTES binding to CCR5/CHO cells (CCR5 antagonistic activity)
Details: 40 min, test compound 1 μM, [125I]-RANTES as ligand, room temperature, read-out: Binding Inhibitory Ratio (%)
recordedEndpoint: inhibition at 1 µM (%)

INSERT INTO assay_data (compound, measuredresult) VALUES
  ('CCCCOCCOc1ccc(-c2ccc3c(c2)C=C(C(=O)Nc2ccc([S+]([O-])Cc4nccn4C4CC4)cc2)CCN3CC(C)C)cc1 (stereo not shown)', 96),
  ('CCCCOCCOc1ccc(-c2ccc3c(c2)C=C(C(=O)Nc2ccc([S+]([O-])Cc4cccnn4)cc2)CCN3CC(C)C)cc1 (stereo not shown)', 88),
  ('CCCCOCCOc1ccc(-c2ccc3c(c2)C=C(C(=O)Nc2ccc(SCc4nncn4C)cc2)CCN3CC(C)C)cc1', 100),
  ('CCCCOCCOc1ccc(-c2ccc3c(c2)C=C(C(=O)Nc2ccc(SCc4cncn4C(C)C)cc2)CCN3CC(C)C)cc1', 93),
  ('CCCCOCCOc1ccc(-c2ccc3c(c2)C=C(C(=O)Nc2ccc(S(=O)(=O)Cc4nccn4CCCC(=O)NC)cc2)CCN3CC(C)C)cc1', 100),
  ('CCCCOCCOc1ccc(-c2ccc3c(c2)C=C(C(=O)Nc2ccc([C@H](O)c4cccc[n+]4[O-])cc2)CCN3CC(C)C)cc1', 92),
  ('CCCCOCCOc1ccc(-c2ccc3c(c2)C=C(C(=O)Nc2ccc([S+]([O-])Cc4nccn4CCCC(N)=O)cc2)CCN3CC(C)C)cc1 (single isomer, unassigned; (-))', 92),
  ('CCCCOCCOc1ccc(-c2ccc3c(c2)C=C(C(=O)Nc2ccc(CCc4nncn4CCC)cc2)CCN3CC(C)C)cc1', 97),
  ('CCCCOCCOc1ccc(-c2ccc3c(c2)C=C(C(=O)Nc2ccc([C@H](O)c4cccc[n+]4[O-])cc2)CCN3Cc2cnn(C)c2)cc1', 89),
  ('CCCCOCCOc1ccc(-c2ccc3c(c2)C=C(C(=O)Nc2ccc([S+]([O-])Cc4cncn4CCC)cc2)CCN3CC(C)C)cc1 (stereo not shown)', 100),
  ('CCCCOCCOc1ccc(-c2ccc3c(c2)C=C(C(=O)Nc2ccc([S+]([O-])Cc4cncn4CCOC(C)=O)cc2)CCN3CC(C)C)cc1 (stereo not shown)', 100),
  ('CCCCOCCOc1ccc(-c2ccc3c(c2)C=C(C(=O)Nc2ccc(SCc4nncn4CCC)nc2)CCN3CC(C)C)cc1', 98),
  ('CCCCOCCOc1ccc(-c2ccc3c(c2)C=C(C(=O)Nc2ccc([S+]([O-])Cc4nccn4CCCC(=O)NC)cc2)CCN3CC(C)C)cc1 (stereo not shown)', 96);
